# Test system: Jurkat (T-Lymphoblastic Leukemia)
# protocol_summary: combination Emax (second highest fraction inhibited in the dose matrix, 72 h); higher = more inhibition; extreme values may be limits of the assay
attribute_measured: combination Emax
One number for each entry.

Reference set (2 entries):
{"compound": "Cc1cc2ncnn2cc1Nc1ncc2c(n1)n(C1CCOCC1)c(=O)n2C [AZD7648] + O=C(c1cc(Cc2n[nH]c(=O)c3ccccc23)ccc1F)N1CCN(C(=O)C2CC2)CC1 [Olaparib] (first compound max 10 µM, 7x7, partner max 10 µM)", "combination Emax": 0.508}
{"compound": "CC1(C)CCC(CN2CCN(c3ccc(C(=O)NS(=O)(=O)c4ccc(NCC5CCOCC5)c([N+](=O)[O-])c4)c(Oc4cnc5[nH]ccc5c4)c3)CC2)=C(c2ccc(Cl)cc2)C1 [Venetoclax] + COc1cc(Nc2ncc3c(n2)-c2ccc(Cl)cc2C(c2c(F)cccc2OC)=NC3)ccc1C(=O)O [Alisertib] (first compound max 1 µM, 7x7, partner max 10 µM)", "combination Emax": 0.741}

Let us examine a further case.
Entry Cc1c2c(nn1C)CSCc1cc(n(C)n1)CSc1cc(c3ccccc3c1)OCCCc1c(C(=O)O)n(C)c3c-2c(Cl)ccc13 [AZD5991] + CN(C)CCCOc1ccc(-c2ccc3ncc4c(c3c2)n(C2CCOCC2)c(=O)n4C)cn1 [AZD0156] (first compound max 1 µM, 7x7, partner max 1 µM) ; combination Emax = 0.928

Each recorded value in this set is attributed to the supplement of paper PMC11061612.
